Target: lipid vesicles 60% POPC:15% cholesterol:15% POPE:10% POPS
Experiment: Fluorescence anisotropy titration of NBD-labeled MARCKS peptides with lipid vesicles
Type: binding
Conditions: 400 nm pore size lipid vesicles containing 10% PS
endpoint label: pKd
Answers are plain numbers, as −log10 of the molar value.

Look up pKd of KKKKKRFSFKKSFKLSGFSFKKNKK [MARCKS-ED] and report it.
4.07

* * *

Target: lipid vesicles
Test: Fluorescence anisotropy titration of BK derived peptides with lipid vesicles
Type: binding
Conditions: LM 3 V454; read-out: Dissociation constant (Kd)
endpoint label: pKd
Give bare numbers, as −log10 of the molar value.

Look up pKd of monomeric Bradykinin derivative: GRPPGFSPFR with ε-azidolysine and NBD-X fluorophore at the N-terminus [Peptide 1] and report it.
3.04

* * *

Target: lipid vesicles
Assay: Fluorescence anisotropy titration of BK derived peptides with lipid vesicles
Assay type: binding
Conditions: LM 2 V116; read-out: Dissociation constant (Kd)
endpoint label: Kd (µM)
Give bare numbers, in µM.

Look up Kd of monomeric Bradykinin derivative: GRPPGFSPFR with ε-azidolysine and NBD-X fluorophore at the N-terminus [Peptide 1] and report it.
585

* * *

Molecular target: lipid vesicles 60% POPC:15% cholesterol:15% POPE:10% POPS
Experiment: Fluorescence anisotropy titration of NBD-labeled MARCKS peptides with lipid vesicles
Format: binding
Conditions: 100 nm pore size lipid vesicles containing 10% PS
endpoint label: pKd
Give bare numbers, as −log10 of the molar value.

Look up pKd of KKKKKRFSFKKSFKLSGFSFKKNKK [MARCKS-ED] and report it.
4.38

* * *

Molecular target: lipid vesicles
Test: Fluorescence anisotropy titration of BK derived peptides with lipid vesicles
Type: binding
Details: LM 1 V58; read-out: Dissociation constant (Kd)
endpoint label: pKd
Numbers only, as −log10 of the molar value.

Look up pKd of monomeric Bradykinin derivative: GRPPGFSPFR with ε-azidolysine and NBD-X fluorophore at the N-terminus [Peptide 1] and report it.
3.00

* * *

Target: lipid vesicles
Experiment: Fluorescence anisotropy titration of BK derived peptides with lipid vesicles
Format: binding
Conditions: LM 2 V454; read-out: Dissociation constant (Kd)
endpoint label: Kd

Look up Kd of monomeric Bradykinin derivative: GRPPGFSPFR with ε-azidolysine and NBD-X fluorophore at the N-terminus [Peptide 1] and report it.
> 1000 µM
